TESTED ON: CYP2C9 (Homo sapiens (Human))
ASSAY METHOD TEXT: CYP Inhibition Assay, CYP2C9
Assay type: in vitro ADME
COND: human liver microsomes, co-incubation; read-out: CYP 2C9 IC50 co
pIC50: −log10 of the molar value.
PARAMETER MEASURED: pIC50

# example entries with known answers
CCOc1nc(N2C[C@H]3C(=O)N(C)C(N)=N[C@@]3(c3ccccc3)C2)nc(C)c1F (racemic) [4 racemic]; < 4.52
COc1nc(N2C[C@H]3C(=O)N(C)C(=N)N[C@@]3(c3cc(Cl)ccc3F)C2)nc(C)c1F; 5.07
COc1nc(N2C[C@H]3C(=O)N(C)C(=N)N[C@@]3(c3ccc(F)cc3F)C2)nc(C2CC2)c1F; < 4.70
COc1nc(N2C[C@H]3C(=O)N(C)C(=N)N[C@@]3(c3cc(F)ccc3F)C2)nc(C2CC2)c1Cl; ~4.70
COc1nc(N2C[C@H]3C(=O)N(C)C(=N)N[C@@]3(c3cc(F)ccc3Cl)C2)nc(C)c1F; < 4.70
COc1nc(N2C[C@H]3C(=O)N(C)C(=N)N[C@@]3(c3ccc(F)cc3F)C2)nc(C2CC2)c1Cl; < 4.70
COc1nc(N2C[C@H]3C(=O)N(C)C(=N)N[C@@]3(c3ccc(F)cc3F)C2)nc(CO)c1F; < 4.70
COc1nc(N2C[C@H]3C(=O)N(C)C(=N)N[C@@]3(c3cc(F)ccc3F)C2)nc(OC)c1F; ~4.52

**Query** Give the reported value of pIC50 for this record: CCc1nc(N2C[C@H]3C(=O)N(C)C(N)=N[C@@]3(c3ccccc3)C2)nc(C)c1F (racemic) [5 racemic]
**Result** < 4.52

**Query** Please report the measured pIC50 for "COc1nc(N2C[C@H]3C(=O)N(C)C(=N)N[C@@]3(c3c(F)cc(F)cc3F)C2)nc(C)c1F"
**Result** < 4.70

###

TESTED ON: soluble human BACE1 catalytic domain (Homo sapiens (Human), UniProt P56817);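 note: cleavage of a quenched APP Swedish mutant peptide (QSY7 quencher, Europium donor) measured as rise in 620 nm fluorescence after 1.5 h at 30 °C, inhibition suppresses signal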
Sequence (P56817 75-416): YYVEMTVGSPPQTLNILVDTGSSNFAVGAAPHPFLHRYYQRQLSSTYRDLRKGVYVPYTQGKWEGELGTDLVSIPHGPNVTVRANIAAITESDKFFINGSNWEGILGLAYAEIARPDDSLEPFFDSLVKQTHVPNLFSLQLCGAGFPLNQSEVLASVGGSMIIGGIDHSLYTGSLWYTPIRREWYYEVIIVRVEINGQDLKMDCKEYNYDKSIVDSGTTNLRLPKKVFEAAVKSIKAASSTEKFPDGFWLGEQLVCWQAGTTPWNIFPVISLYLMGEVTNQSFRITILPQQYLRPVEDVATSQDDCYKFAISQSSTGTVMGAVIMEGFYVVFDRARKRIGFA
PARAMETER MEASURED: Ki (µM)
Give just the numeric value; µM need not be written.

Guide cases for Ki, answers given:
CCOc1nc(N2C[C@H]3C(=O)N(C)C(=N)N[C@@]3(c3ccccc3)C2)nc(OC)c1F (racemic) [24 racemic]; 0.137
COc1nc(N2C[C@H]3C(=O)N(C)C(=N)N[C@@]3(c3ccc(F)cc3F)C2)nc(C(C)(F)F)c1F; 0.011

Here is the next item to consider.
**Query** Under soluble human BACE1 catalytic domain (Homo sapiens (Human), UniProt P56817): report Ki of "COc1nc(N2C[C@H]3C(=O)N(C)C(=N)N[C@@]3(c3cc(F)ccc3F)C2)nc(OC)c1F" .
**Result** 0.0056

###

TESTED ON: CYP2C9 (Homo sapiens (Human), UniProt P11712)
Sequence (P11712 whole entry): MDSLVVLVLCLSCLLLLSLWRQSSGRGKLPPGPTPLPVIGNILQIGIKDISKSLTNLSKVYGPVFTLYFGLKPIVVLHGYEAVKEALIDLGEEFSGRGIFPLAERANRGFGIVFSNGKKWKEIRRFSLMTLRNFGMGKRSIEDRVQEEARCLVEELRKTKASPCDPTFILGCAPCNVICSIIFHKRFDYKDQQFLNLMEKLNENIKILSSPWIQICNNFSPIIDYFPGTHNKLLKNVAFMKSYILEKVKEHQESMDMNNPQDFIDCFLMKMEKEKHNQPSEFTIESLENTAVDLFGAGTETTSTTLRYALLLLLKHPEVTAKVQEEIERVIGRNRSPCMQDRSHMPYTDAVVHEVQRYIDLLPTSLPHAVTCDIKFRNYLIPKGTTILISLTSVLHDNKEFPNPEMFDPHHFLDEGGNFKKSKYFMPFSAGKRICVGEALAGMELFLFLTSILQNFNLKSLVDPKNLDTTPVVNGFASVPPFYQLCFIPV
ASSAY METHOD TEXT: CYP Inhibition Assay, CYP2C9;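 note: probe substrate held close to its Km, with metabolite formation quantified by LC-MS/MS against a calibration curve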
Assay type: in vitro ADME
COND: human liver microsomes, 30 min pre-incubation with NADPH; read-out: CYP 2C9 IC50 pre
PARAMETER MEASURED: IC50

Below, each entry is followed by its recorded IC50 result.
COc1nc(N2C[C@H]3C(=O)N(C)C(=N)N[C@@]3(c3cc(F)ccc3F)C2)nc(C2CC2)c1F; > 20 µM
Cc1nc(N2C[C@H]3C(=O)N(C)C(=N)N[C@@]3(c3cccc(C#N)c3)C2)nc(C2CC2)c1F; > 20 µM
COc1nc(N2C[C@H]3C(=O)N(C)C(=N)N[C@@]3(c3ccc(F)cc3Cl)C2)nc(C)c1F; 8.9 µM
COc1nc(N2C[C@H]3C(=O)N(C)C(=N)N[C@@]3(c3cc(Cl)ccc3F)C2)nc(C)c1F; 12.7 µM
COc1nc(N2C[C@H]3C(=O)N(C)C(=N)N[C@@]3(c3ccc(F)c(Cl)c3F)C2)nc(C)c1F (racemic) [39 racemic]; > 20 µM
CCc1nc(N2C[C@H]3C(=O)N(C)C(=N)N[C@@]3(c3ccc(F)cc3)C2)nc(OC)c1F; > 30 µM

Now examine the next entry.
**Query** Supply reported IC50 belonging to this compound: "COc1nc(N2C[C@H]3C(=O)N(C)C(N)=N[C@@]3(c3c(F)ccc(F)c3F)C2)nc(C)c1F"
**Result** > 20 µM
